# System: SNB-19
# TEST SUMMARY: NCI human tumor cell panel
# MEASUREMENT CONTEXT: SNB-19, read-out: Log10 LC50 (converted)
# CC50 values compiled below

{"CHEMICAL STRING": "OCc1ccc(-c2ccc(-c3ccc(CO)[se]3)[se]2)[se]1", "CC50": "91.2 µM"}
{"CHEMICAL STRING": "OCc1ccc(-c2ccc(-c3ccc(CO)[se]3)s2)s1", "CC50": "> 100 µM"}
{"CHEMICAL STRING": "O=Cc1ccc(-c2ccc(-c3ccc[se]3)[se]2)[se]1", "CC50": "87.1 µM"}

Query string: Consider the compound O=Cc1ccc(-c2ccc(-c3ccc(C=O)[se]3)[se]2)[se]1 and give its measured CC50.
Result string: > 100 µM

Query string: What would you report for O=Cc1ccc(-c2ccc(-c3ccc(C=O)s3)[se]2)s1 ?
Result string: > 100 µM

Query string: What would you report for OCc1ccc(-c2ccc(-c3ccc(CO)[se]3)s2)[se]1 ?
Result string: > 100 µM
